B1: HESX1 (parent)
chain: QKKDCVPLMKPHRPWADTCSSSGK

- Variants of: B1
- assay: protein stability index of a GFP-peptide fusion (GPS, HEK-293T) (PSI 1-6); higher = more stable;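 note: lentivirally expressed fusions sorted by FACS into six bins by GFP to DsRed ratio, PSI derived from sequencing read proportions per bin multiplied by bin number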
- experimental parameters: c terminus: a fixed tail appended
Assign class by protein stability index: not lower than 3 means met; lower than 3 means not met.

G23V = not met
L8T = not met
C5K = not met
S21A = met
C19N = met
Q1P = met
P7F = not met
D4W = not met
S22R = met
C5F = met
P7M = met
S20W = not met
P7I = not met
V6D = met
P7L = not met
K2W = not met
S20G = not met
M9H = met
